This listing pairs molecules with measured pIC50.
test_system: Neuropeptide Y receptor type 2 (Homo sapiens, UniProt P49146)
Sequence (P49146 whole entry): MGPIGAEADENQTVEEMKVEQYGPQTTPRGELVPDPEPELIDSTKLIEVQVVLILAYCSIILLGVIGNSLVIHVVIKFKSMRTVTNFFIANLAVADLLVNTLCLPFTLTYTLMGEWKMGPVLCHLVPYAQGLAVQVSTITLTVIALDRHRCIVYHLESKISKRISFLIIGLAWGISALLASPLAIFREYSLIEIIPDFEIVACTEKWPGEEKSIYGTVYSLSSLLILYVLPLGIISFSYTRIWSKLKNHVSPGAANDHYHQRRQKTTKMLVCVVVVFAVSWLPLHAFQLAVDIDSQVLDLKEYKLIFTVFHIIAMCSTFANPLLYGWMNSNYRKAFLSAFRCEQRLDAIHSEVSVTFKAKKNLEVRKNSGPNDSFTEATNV
method_notes: Affinity against Neuropeptide Y receptor Y2 in SK-N-BE2 cell line
Where a SMILES comes first, the peptide text is derived from it. [ ]: non-standard residue; d: D form. The star is where a group is joined. Argψ(CH2NH)TyrNH2 = N=C(N)NCCC[C@@H](CN[C@@H](Cc1ccc(O)cc1)C(N)=O)N*; Tic = O=C(O)[C@@H]1Cc2ccccc2CN1
// field semantics: pIC50 = negative decimal log of concentration (mol/L)

Reference set, count: 2
CC(=O)N[C@@H](C)C(=O)N[C@@H](CO)C(=O)N[C@@H](CC(C)C)C(=O)N[C@@H](CCCNC(=N)N)C(=O)N[C@@H](Cc1cnc[nH]1)C(=O)N1Cc2ccccc2C[C@H]1C(=O)N[C@@H](CC(C)C)C(=O)N[C@@H](CC(N)=O)C(=O)N[C@@H](CC(C)C)C(=O)N[C@H](C(=O)N[C@H](C(=O)N[C@@H](CCCNC(=N)N)C(=O)N[C@@H](CCC(N)=O)C(=O)N[C@@H](CCCNC(=N)N)C(=O)N[C@@H](Cc1ccc(O)cc1)C(N)=O)[C@@H](C)O)C(C)C (Ac-ASLRH[Tic]LNLVTRQRY-NH2): 6.73
CC(=O)N[C@@H](C)C(=O)N[C@@H](CO)C(=O)N[C@@H](CC(C)C)C(=O)N[C@@H](CCCNC(=N)N)C(=O)N[C@@H](Cc1cnc[nH]1)C(=O)N[C@@H](Cc1c[nH]c2ccccc12)C(=O)N[C@@H](CC(C)C)C(=O)N[C@@H](CC(N)=O)C(=O)N[C@@H](CC(C)C)C(=O)N[C@H](C(=O)N[C@H](C(=O)N[C@@H](CCCNC(=N)N)C(=O)N[C@@H](CCC(N)=O)C(=O)N[C@@H](CCCNC(=N)N)CN[C@@H](Cc1ccc(O)cc1)C(N)=O)[C@@H](C)O)C(C)C (Ac-ASLRHWLNLVTRQ-{Argψ(CH2NH)TyrNH2}): 8.98

Q. Requested field: pIC50. Item: "CCCC[C@H](NC(=O)[C@H](CO)NC(=O)[C@H](C)NC(C)=O)C(=O)N[C@@H](CCCNC(=N)N)C(=O)N[C@@H](Cc1cnc[nH]1)C(=O)N[C@@H](Cc1ccc(O)cc1)C(=O)N[C@@H](CCCC)C(=O)N[C@@H](CC(N)=O)C(=O)N[C@@H](Cc1c[nH]c2ccccc12)C(=O)N[C@@H](CCC)C(=O)N[C@H](C(=O)N[C@@H](CCCNC(=N)N)C(=O)N[C@@H](CCC(N)=O)C(=O)N[C@@H](CCCNC(=N)N)C(=O)N[C@@H](Cc1ccc(O)cc1)C(N)=O)[C@@H](C)O"
A. 8.43

###

test_system: Neuropeptide Y receptor type 2 (Homo sapiens)
method_notes: Affinity against Neuropeptide Y receptor Y2 in SK-N-BE2 cell line
Where a SMILES comes first, the peptide text is derived from it. [ ]: non-standard residue; d: D form. Bip = N[C@@H](Cc1ccc(-c2ccccc2)cc1)C(=O)O
assay_metric: pIC50
// field semantics: pIC50 = negative decimal log of concentration (mol/L)

CC(=O)N[C@@H](C)C(=O)N[C@@H](CO)C(=O)N[C@@H](CC(C)C)C(=O)N[C@@H](CCCN=C(N)N)C(=O)N[C@@H](Cc1c[nH]cn1)C(=O)N[C@@H](Cc1ccc(O)cc1)C(=O)N[C@@H](CC(C)C)C(=O)N[C@@H](CC(N)=O)C(=O)N[C@@H](Cc1c[nH]c2ccccc12)C(=O)N[C@H](C(=O)N[C@H](C(=O)N[C@@H](CCCN=C(N)N)C(=O)N[C@@H](CCC(N)=O)C(=O)N[C@@H](CCCN=C(N)N)C(=O)N[C@@H](Cc1ccc(O)cc1)C(N)=O)[C@@H](C)O)C(C)C: 9.01

Q. Requested field: pIC50. Item: CC(=O)N[C@@H](C)C(=O)N[C@@H](CO)C(=O)N[C@@H](CC(C)C)C(=O)N[C@@H](CCCN=C(N)N)C(=O)N[C@@H](Cc1c[nH]cn1)C(=O)N[C@@H](Cc1ccc(-c2ccccc2)cc1)C(=O)N[C@@H](CC(C)C)C(=O)N[C@@H](CC(N)=O)C(=O)N[C@@H](CC(C)C)C(=O)N[C@H](C(=O)N[C@H](C(=O)N[C@@H](CCCN=C(N)N)C(=O)N[C@@H](CCC(N)=O)C(=O)N[C@@H](CCCN=C(N)N)C(=O)N[C@@H](Cc1ccc(O)cc1)C(N)=O)[C@@H](C)O)C(C)C (Ac-ASLRH[Bip]LNLVTRQRY-NH2)
A. 7.85
